Target: MEK5 PB1 domain binding to MEKK2 (MAP3K2) mutant PB1, human
Assay: mutant MEKK2 PB1-MEK5 interaction blockers – biochemical, bead multiplex flow cytometry, dose response (AID 1895)
Settings: Bead-based multiplex flow cytometry
Activity calls are given as the source filed them. How the calls were made is not given here.
Hello, when you answer, please use one of the following outcomes: Y = active, N = inactive

[
  {
    "Compound": "CN1CCN(CC(O)COc2ccc(C34CC5CC(CC(C5)C3)C4)cc2)CC1 (stereo not drawn)",
    "Class Name": "N"
  }
]

[Q] // outcome(item) with item = Nc1ccc2nc(-c3ccc(-c4nc5ccc(N)cc5[nH]4)cc3)[nH]c2c1
[A] N

[Q] // outcome(item) with item = C#CCOCCOCCOCCNc1nc(N2CCN(C(=O)[C@H](Cc3ccc(O)cc3)n3cc([C@@H](N)C(C)CC)nn3)CC2)nc(N2CCN(C(=O)[C@H](Cc3cc4ccccc4[nH]3)n3cc([C@@H](N)CC(C)C)nn3)CC2)n1 (stereo partly drawn)
[A] Y

[Q] // outcome(item) with item = CSc1cccc(NC(=S)N(CCCN2CCCC2)Cc2cccn2Cc2ccc(Cl)cc2)c1
[A] Y

[Q] // outcome(item) with item = CCN1/C(=C/c2ccc3cc(C)cc(C)c3[n+]2CC)Sc2cc(C)ccc21
[A] Y

[Q] // outcome(item) with item = CN1CCN(CC(=O)N2CCn3c4c(c5cc(C6CCCCC6)ccc53)CCCC42)CC1 (stereo not drawn)
[A] N

[Q] // outcome(item) with item = CCN(CC)CCOC(=O)c1ccc(N/C=C(/C#N)c2nc(-c3ccc(OC)c(OC)c3)cs2)cc1
[A] N

[Q] // outcome(item) with item = COc1cc2nc(N3CCN(c4cc(C)ccc4C)CC3)nc(N)c2cc1OC
[A] Y
